target: Human immunodeficiency virus type 1 protease (Human immunodeficiency virus 1, UniProt Q72874)
assay-metric: IC50 (µM)

1) CC(C)CN(C[C@@H](O)[C@H](Cc1ccccc1)NC(=O)O[C@@H]1CCNC1)S(=O)(=O)c1ccc(N)cc1 : 25.4
2) CC(C)CN(C[C@@H](O)[C@H](Cc1ccccc1)NC(=O)[C@H]1CCNC1)S(=O)(=O)c1ccc(O)cc1 : 0.51
3) COc1ccc(S(=O)(=O)N(CC(C)C)C[C@@H](O)[C@H](Cc2ccccc2)NC(=O)[C@@H]2CCNC2)cn1 : 0.83
4) CC(C)CN(C[C@@H](O)[C@H](Cc1ccccc1)NC(=O)O[C@H]1CCNC1)S(=O)(=O)c1ccc(NO)cc1 : 5.1

###

// values below are reported IC50
target: Human immunodeficiency virus type 1 protease (Human immunodeficiency virus 1); test: Inhibition of HIV-1 protease expressed in Escherichia coli using Arg-Glu(EDANS)-Ser-Gln-Asn-Tyr-Pro-Ile-Val-Gln-Lys(DABCYL)-Arg peptide as substrate preincubated for 20 to 30 mins followed by substrate addition and measured for 10 mins by FRET assay
assay-metric: IC50 (nM)

1) CC(C)CN(C[C@@H](O)[C@H](Cc1ccccc1)NC(=O)N[C@@H]1CCNC1)S(=O)(=O)c1ccc(O)cc1 : 5970
2) COc1ccc(S(=O)(=O)N(CC(C)C)C[C@@H](O)[C@H](Cc2ccccc2)NC(=O)O[C@H]2CCNC2)cc1 : 1100
3) COc1ccc(S(=O)(=O)N(CC(C)C)C[C@@H](O)[C@H](Cc2ccccc2)NC(=O)O[C@@H]2CCNC2)cn1 : 23000
4) COc1ccc(S(=O)(=O)N(CC(C)C)C[C@@H](O)[C@H](Cc2ccccc2)NC(=O)[C@@H]2CCNC2)cc1 : 410
5) CC(C)CN(C[C@@H](O)[C@H](Cc1ccccc1)NC(=O)O[C@@H]1CCNC1)S(=O)(=O)c1ccc(NO)cc1 : 27400
6) CC(C)CN(C[C@@H](O)[C@H](Cc1ccccc1)NC(=O)[C@@H]1CCNC1)S(=O)(=O)c1ccc(NO)cc1 : 1210
7) CC(C)CN(C[C@@H](O)[C@H](Cc1ccccc1)NC(=O)[C@H]1CCNC1)S(=O)(=O)c1ccc(NO)cc1 : 10900
8) COc1ccc(S(=O)(=O)N(CC(C)C)C[C@@H](O)[C@H](Cc2ccccc2)NC(=O)N[C@H]2CCNC2)cc1 : 4010
9) CC(C)CN(C[C@@H](O)[C@H](Cc1ccccc1)NC(=O)O[C@H]1CCNC1)S(=O)(=O)c1ccc(O)cc1 : 720
10) CC(C)CN(C[C@@H](O)[C@H](Cc1ccccc1)NC(=O)[C@@H]1CCCN1)S(=O)(=O)c1ccc(O)cc1 : 970
11) COc1ccc(S(=O)(=O)N(CC(C)C)C[C@@H](O)[C@H](Cc2ccccc2)NC(=O)[C@H]2CCNC2)cc1 : 600
12) CC(C)CN(C[C@@H](O)[C@H](Cc1ccccc1)NC(=O)O[C@H]1CCNC1)S(=O)(=O)c1ccc(N)cc1 : 5060

###

target: Human immunodeficiency virus type 1 protease (Human immunodeficiency virus 1)
Examples of molecules with documented log10 IC50 follow.
assay-metric: log10 IC50 (log10 of the value in µM)

1. COc1ccc(S(=O)(=O)N(CC(C)C)C[C@@H](O)[C@H](Cc2ccccc2)NC(=O)C[C@H]2CCNC2)cc1 : 0.44
2. CC(C)CN(C[C@@H](O)[C@H](Cc1ccccc1)NC(=O)[C@@H]1CCNC1)S(=O)(=O)c1ccc(N)cc1 : 0.79
3. COc1ccc(S(=O)(=O)N(CC(C)C)C[C@@H](O)[C@H](Cc2ccccc2)NC(=O)[C@H]2CCCN2)cc1 : 1.60
4. CC(C)CN(C[C@@H](O)[C@H](Cc1ccccc1)NC(=O)[C@@H]1CCNC1)S(=O)(=O)c1ccc(O)cc1 : -0.49
5. COc1ccc(S(=O)(=O)N(CC(C)C)C[C@@H](O)[C@H](Cc2ccccc2)NC(=O)N[C@@H]2CCNC2)cc1 : 1.32
6. COc1ccc(S(=O)(=O)N(CC(C)C)C[C@@H](O)[C@H](Cc2ccccc2)NC(=O)C[C@@H]2CCNC2)cc1 : 1.31
7. CC(C)CN(C[C@@H](O)[C@H](Cc1ccccc1)NC(=O)C[C@H]1CCNC1)S(=O)(=O)c1ccc(O)cc1 : 0.16
8. CC(C)CN(C[C@@H](O)[C@H](Cc1ccccc1)NC(=O)O[C@@H]1CCNC1)S(=O)(=O)c1ccc(O)cc1 : -0.09
